assay_system: Free fatty acid receptor 4 (Homo sapiens)
Sequence (Q5NUL3 whole entry, looked up, change not shown, canonical isoform): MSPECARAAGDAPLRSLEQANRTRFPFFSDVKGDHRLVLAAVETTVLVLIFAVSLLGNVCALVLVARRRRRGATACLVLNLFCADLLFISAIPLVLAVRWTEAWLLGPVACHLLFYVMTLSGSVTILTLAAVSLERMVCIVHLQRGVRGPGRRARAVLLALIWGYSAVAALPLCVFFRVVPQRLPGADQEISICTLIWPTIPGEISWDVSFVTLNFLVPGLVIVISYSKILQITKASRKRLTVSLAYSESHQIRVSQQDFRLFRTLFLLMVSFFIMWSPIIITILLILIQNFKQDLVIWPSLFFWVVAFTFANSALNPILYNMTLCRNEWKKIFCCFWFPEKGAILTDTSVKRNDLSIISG
assay_method_text: Agonist activity at human GPR120 short splice variant expressed in HEK293 cells assessed as increase in intracellular calcium flux by Fluo-4 NW dye based FLIPR assay
Type: functional, cell-based
Kindly supply the reported log10 of EC50 values for the records listed here.
In plain terms, each number is the log10 of measured EC50 in nM.

Query: Sample Cc1c(CCC(=O)O)ccc(OCc2cccn2-c2ccc(Cl)cc2)c1C — what was its log10 of EC50?
Reply: 2.16

Query: Sample Cc1c(CCC(=O)O)ccc(OCc2c(-c3ccc(Cl)cc3)noc2C2CC2)c1C — what was its log10 of EC50?
Reply: 3.03

Query: Sample Cc1c(CCC(=O)O)ccc(OCc2ccccc2-c2ccc(Cl)cc2)c1C — what was its log10 of EC50?
Reply: 2.34

Query: Sample CCc1ccc(-c2sncc2COc2ccc(CCC(=O)O)c(C)c2C)cc1 — what was its log10 of EC50?
Reply: 2.28

Query: Sample O=C(O)CCc1cc(F)c(OCc2c(-c3ccc(Cl)cc3)noc2C(F)(F)F)c(F)c1 — what was its log10 of EC50?
Reply: 1.85

Query: Sample CCc1ccc(-c2noc(C(F)(F)F)c2COc2c(F)cc(CCC(=O)O)cc2F)cc1 — what was its log10 of EC50?
Reply: 1.76

Query: Sample O=C(O)CCc1cc(F)c(OCc2c(-c3ccccc3)noc2C(F)(F)F)c(F)c1 — what was its log10 of EC50?
Reply: 2.23

Query: Sample COc1ccc(-c2noc(C(F)(F)F)c2COc2c(F)cc(CCC(=O)O)cc2F)cc1 — what was its log10 of EC50?
Reply: 3.05

Query: Sample O=C(O)CCc1ccc(OCc2c(-c3ccc(Cl)cc3)noc2C(F)(F)F)cc1C(F)(F)F — what was its log10 of EC50?
Reply: 3.16

Query: Sample Cc1noc(-c2ccc(Cl)cc2)c1COc1ccc(CCC(=O)O)c(C)c1C — what was its log10 of EC50?
Reply: 2.54

Query: Sample Cc1onc(-c2ccc(Cl)cc2)c1COc1ccc(CCC(=O)O)c(C)c1C — what was its log10 of EC50?
Reply: 2.43

Query: Sample O=C(O)CCc1ccc(OCc2c(-c3ccccc3)noc2C(F)(F)F)cc1 — what was its log10 of EC50?
Reply: 2.18

Query: Sample CCc1ccc(-c2ccsc2COc2ccc(CCC(=O)O)c(C)c2C)cc1 — what was its log10 of EC50?
Reply: 2.20

Query: Sample Cc1c(CCC(=O)O)ccc(OCc2ncoc2-c2ccc(Cl)cc2)c1C — what was its log10 of EC50?
Reply: 3.24

Query: Sample CCCc1onc(-c2ccc(Cl)cc2)c1COc1ccc(CCC(=O)O)c(C)c1C — what was its log10 of EC50?
Reply: 3.03

---

Kindly supply the reported remaining at 10 min values for the records listed here.
assay_method_text: Stability in human liver microsomes assessed as parent compound remaining after 10 mins
Format: ADME, microsome
assay_context: read-out: Stability
Please give a number only; it is taken to be in %.

Query: Sample Cc1c(CCC(=O)O)ccc(OCc2c(-c3ccc(Cl)cc3)noc2C(F)(F)F)c1C — what was its remaining at 10 min?
Reply: 80.9

Query: Sample O=C(O)CCc1cc(F)c(OCc2c(-c3ccc(F)cc3Cl)noc2C(F)(F)F)c(F)c1 — what was its remaining at 10 min?
Reply: 108

Query: Sample O=C(O)CCc1ccc(OCc2c(-c3ccc(Cl)cc3)noc2C(F)(F)F)c(F)c1F — what was its remaining at 10 min?
Reply: 99.6

Query: Sample O=C(O)CCc1cc(F)c(OCc2c(-c3ccc(Br)cc3)noc2C(F)(F)F)c(F)c1 — what was its remaining at 10 min?
Reply: 105

Query: Sample O=C(O)CCc1cc(F)c(OCc2c(-c3ccc(Cl)cc3)noc2C(F)(F)F)c(F)c1 — what was its remaining at 10 min?
Reply: 113

Query: Sample O=C(O)CCc1cc(F)c(OCc2c(-c3ccccc3)noc2C(F)(F)F)c(F)c1 — what was its remaining at 10 min?
Reply: 95.6

Query: Sample CCc1onc(-c2ccc(Cl)cc2)c1COc1ccc(CCC(=O)O)c(C)c1C — what was its remaining at 10 min?
Reply: 66.3

Query: Sample Cc1ccc(-c2noc(C(F)(F)F)c2COc2c(F)cc(CCC(=O)O)cc2F)cc1 — what was its remaining at 10 min?
Reply: 64.4

Query: Sample Cc1ccc(-c2noc(C(F)(F)F)c2COc2c(F)cc(CC(C)C(=O)O)cc2F)cc1 (stereo unspecified) — what was its remaining at 10 min?
Reply: 93

Query: Sample O=C(O)CCc1cc(F)c(OCc2c(-c3ccc(F)cc3)noc2C(F)(F)F)c(F)c1 — what was its remaining at 10 min?
Reply: 103

Query: Sample CCCc1onc(-c2ccc(Cl)cc2)c1COc1ccc(CCC(=O)O)c(C)c1C — what was its remaining at 10 min?
Reply: 79.3
